Items are presented alongside their recorded Binding of serum 37 to linear peptides of protein M of SARS-CoV Urbani.
Tested on: antibodies in sera from SARS patients (sera 1a, 1b, 2, 6, 37, 62, London, SARS-yellow, SARS-green)
Assay type: binding, human
Set-up: unit not given here
Please reply with the number alone, leaving off any unit.

Example cases with answers are listed next.
GTDSGFAAYNRYRIG :: 0.6
FLYIIKLVFLWLLWP :: 0.8
AIAMACIVGLMWLSY :: 0.7
RTLSYYKLGASQRVG :: 0.5
RIGNYKLNTDHAGSN :: 0.5
WLLWPVTLACFVLAA :: 0.6
YNRYRIGNYKLNTDH :: 0.5
LACFVLAAVYRINWV :: 0.5

Entry LAWIMLLQFAYSNRN : reported Binding of serum 37 to linear peptides of protein M of SARS-CoV Urbani = ?
0.7

Entry RCDIKDLPKEITVAT : reported Binding of serum 37 to linear peptides of protein M of SARS-CoV Urbani = ?
0.5

Entry VLAAVYRINWVTGGI : reported Binding of serum 37 to linear peptides of protein M of SARS-CoV Urbani = ?
0.6

====

Tested on: control sera (pooled serum of ten healthy LUMC hospital workers; commercial negative donor pooled serum from the Dutch bloodbank)
Type: binding, human
Set-up: unit not given here
quantity_measured: Binding of Control serum Blood-bank to linear peptides

Example cases with answers are listed next.
IGGYSEDRHSGVKDY :: 0.4
SGTYEGNSPFHPLAD :: 0.8
LIVFTSCELYHYQEC :: 0.6
TATKQYNVTQAFGRR :: 0.8
IDGSSGVANPAMDPI :: 0.6
LLKEPCPSGTYEGNS :: 0.6
KRWQLALYKGFQFIC :: 0.6
MVQTGTPNVTINCQD :: 0.8

Entry LIYFLQCINACRIIM : reported Binding of Control serum Blood-bank to linear peptides = ?
0.6

Entry TQITTDTGIENATFF : reported Binding of Control serum Blood-bank to linear peptides = ?
0.6

Entry AYCCNIVNVSLVKPT : reported Binding of Control serum Blood-bank to linear peptides = ?
0.9

====

Tested on: control sera (pooled serum of ten healthy LUMC hospital workers; commercial negative donor pooled serum from the Dutch bloodbank)
Type: binding, human
Set-up: unit not given here
quantity_measured: Binding of Control Serum Blood-Bank to Looped peptides of the protein M of SARS-CoV Urbani
Please reply with the number alone, leaving off any unit.

WPVTLACFVLAAVYR :: 0.8
AAVYRINWVTGGIAI :: 0.8
AIAMACIVGLMWLSY :: 0.6
GTDSGFAAYNRYRIG :: 0.6
DLPKEITVATSRTLS :: 0.7

Entry RTRSMWSFNPETNIL : reported Binding of Control Serum Blood-Bank to Looped peptides of the protein M of SARS-CoV Urbani = ?
0.7

Entry NRYRIGNYKLNTDHA : reported Binding of Control Serum Blood-Bank to Looped peptides of the protein M of SARS-CoV Urbani = ?
0.7

Entry YFVASFRLFARTRSM : reported Binding of Control Serum Blood-Bank to Looped peptides of the protein M of SARS-CoV Urbani = ?
0.9

Entry NTDHAGSNDNIALLV : reported Binding of Control Serum Blood-Bank to Looped peptides of the protein M of SARS-CoV Urbani = ?
1.0

====

System: antibodies in sera from SARS patients (sera 1a, 1b, 2, 6, 37, 62, London, SARS-yellow, SARS-green)
Format: binding, human
Items are presented alongside their recorded Binding of serum SARS-yellow to looped/cyclic peptides of protein X1 of SARS-CoV Urbani.
Please reply with the number alone, leaving off any unit.

Example cases with answers are listed next.
IPYNSVTDTIVVTEG :: 0.2
EGDGISTPKLKEDYQ :: 0.1
ITTDTGIENATFFIF :: 0.7
SVTDTIVVTEGDGIS :: 0.2

Entry DYVVVHGYFTEVYYQ : reported Binding of serum SARS-yellow to looped/cyclic peptides of protein X1 of SARS-CoV Urbani = ?
0.5

Entry GIENATFFIFNKLVK : reported Binding of serum SARS-yellow to looped/cyclic peptides of protein X1 of SARS-CoV Urbani = ?
0.5

Entry DTIVVTEGDGISTPK : reported Binding of serum SARS-yellow to looped/cyclic peptides of protein X1 of SARS-CoV Urbani = ?
0.1

Entry TDTGIENATFFIFNK : reported Binding of serum SARS-yellow to looped/cyclic peptides of protein X1 of SARS-CoV Urbani = ?
0.5
